TESTED ON: T1, soluble mouse BLyS (mouse, UniProt Q9WU72 127-309)
T1 construct: europium-labelled in DELFIA; also called mBLyS; mouse BAFF (BLyS)
EXPERIMENTAL PROTOCOL: DELFIA competition, Eu-mBLyS binding to coated BCMA
pIC50: −log10 of the molar value.
In this section we review reported pIC50 values for a set of binders.

Some solved cases for reference:
binder="6C10 IgG1 F243A/V264A double mutein expressed in Pichia pastoris (antibody, V domains shown, IgG1 F243A/V264A (EU) double mutein, alpha-2,6-sialylated, from glycoengineered Pichia pastoris; also called 6C10-DM; 6C10-DM (Pichia)) VH: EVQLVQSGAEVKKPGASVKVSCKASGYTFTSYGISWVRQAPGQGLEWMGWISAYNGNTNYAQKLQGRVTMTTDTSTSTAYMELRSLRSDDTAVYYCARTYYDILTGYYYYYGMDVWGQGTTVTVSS VL: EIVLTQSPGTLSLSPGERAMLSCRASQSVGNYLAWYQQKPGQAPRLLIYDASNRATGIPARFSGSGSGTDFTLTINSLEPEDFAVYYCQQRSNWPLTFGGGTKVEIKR" result_type=pIC50 observed="< 8.70"
binder="8D12 IgG expressed in HEK293 cells (antibody, V domains shown, IgG from HEK293-FreeStyle cells; also called 8D12 (293)) VH: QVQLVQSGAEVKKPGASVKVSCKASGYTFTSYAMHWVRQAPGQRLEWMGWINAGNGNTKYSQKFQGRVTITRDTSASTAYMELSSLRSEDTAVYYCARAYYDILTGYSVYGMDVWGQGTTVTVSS VL: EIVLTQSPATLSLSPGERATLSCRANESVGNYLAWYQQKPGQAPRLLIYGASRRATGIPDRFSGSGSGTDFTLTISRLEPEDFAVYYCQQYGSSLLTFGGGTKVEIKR" result_type=pIC50 observed="< 8.70"
binder="5B7 IgG expressed in HEK293 cells (antibody, V domains shown, also called 5B7 (293); 5B7-HEK293) VH: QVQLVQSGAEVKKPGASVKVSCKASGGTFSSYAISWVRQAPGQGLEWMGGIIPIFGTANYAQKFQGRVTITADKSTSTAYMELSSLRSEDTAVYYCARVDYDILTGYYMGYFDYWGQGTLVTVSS VL: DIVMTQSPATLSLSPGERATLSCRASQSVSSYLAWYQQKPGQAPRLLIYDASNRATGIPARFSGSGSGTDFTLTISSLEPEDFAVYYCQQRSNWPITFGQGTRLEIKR" result_type=pIC50 observed=11.89
binder="6C10 IgG expressed in HEK293 cells (antibody, V domains shown, IgG from HEK293-FreeStyle cells; also called 6C10 (293)) VH: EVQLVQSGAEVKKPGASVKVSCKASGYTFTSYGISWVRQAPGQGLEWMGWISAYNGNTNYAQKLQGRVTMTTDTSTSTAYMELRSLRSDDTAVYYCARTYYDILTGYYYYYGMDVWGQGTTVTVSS VL: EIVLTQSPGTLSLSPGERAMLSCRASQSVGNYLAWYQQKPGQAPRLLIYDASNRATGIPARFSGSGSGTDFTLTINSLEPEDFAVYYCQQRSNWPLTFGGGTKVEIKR" result_type=pIC50 observed=10.01
binder="5B7 IgG1 F243A/V264A double mutein expressed in Pichia pastoris (antibody, V domains shown, IgG1 F243A/V264A (EU) double mutein, alpha-2,6-sialylated, from glycoengineered Pichia pastoris; also called 5B7-DM; 5B7-DM Pichia) VH: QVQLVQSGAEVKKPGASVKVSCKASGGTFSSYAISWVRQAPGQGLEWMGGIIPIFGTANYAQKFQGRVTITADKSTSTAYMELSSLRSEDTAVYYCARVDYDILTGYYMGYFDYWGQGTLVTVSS VL: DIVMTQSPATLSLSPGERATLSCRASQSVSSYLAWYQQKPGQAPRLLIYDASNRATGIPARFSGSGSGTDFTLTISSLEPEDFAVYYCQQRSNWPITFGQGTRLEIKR" result_type=pIC50 observed="> 12.52"

Here is the next item to consider.
Challenge: // Input: 8D12 IgG1 F243A/V264A double mutein expressed in Pichia pastoris (antibody, V domains shown, IgG1 F243A/V264A (EU) double mutein, alpha-2,6-sialylated, from glycoengineered Pichia pastoris; also called 8D12-DM; 8D12-DM (Pichia)) VH: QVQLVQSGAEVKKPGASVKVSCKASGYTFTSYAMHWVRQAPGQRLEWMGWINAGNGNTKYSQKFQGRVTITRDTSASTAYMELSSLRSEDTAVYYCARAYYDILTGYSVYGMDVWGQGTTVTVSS VL: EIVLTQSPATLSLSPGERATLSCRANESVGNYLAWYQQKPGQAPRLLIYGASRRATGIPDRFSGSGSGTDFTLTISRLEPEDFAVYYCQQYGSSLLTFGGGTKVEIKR . Output its pIC50 only.
Response given: < 8.70
